Recorded melting point values for a group of compounds are listed next.

Which melting point value belongs to `COc1cc2ncnc(N3CCN(C(=O)Nc4ccccc4[N+](=O)[O-])CC3)c2cc1OC` ?
217 to 218 °C

Which measured melting point value corresponds to `Cc1ccc2c(N3CCN(C(=O)Nc4ccc([N+](=O)[O-])cc4)CC3)ncnc2c1` ?
251 to 254 °C

Form field: reported melting point of `O=C(Nc1ccc(Oc2ccccc2)cc1)N1CCN(c2ncnc3c(I)cc(I)cc23)CC1`
242 to 244 °C

# melting point lookup, item `O=C(Nc1ccc(Oc2ccccc2)cc1)N1CCN(c2nnc(Cl)c3ccccc23)CC1`
196 to 197 °C

Which melting point value is on record for `COc1cc2ncnc(N3CCN(C(=O)Nc4ccc(Cl)cc4[N+](=O)[O-])CC3)c2cc1OC` ?
205 to 206 °C

* * *

Quantity name: melting point

Known melting point results, listed for orientation:
// query melting point value for entry `Cl.Cl.S=C(NCc1cccnc1)N1CCN(c2ncnc3cccc(Cl)c23)CC1`
150 to 152 °C

Reported melting point for `S=C(NCc1ccccc1)N1CCN(c2ccnc3ccccc23)CC1` : what is it?
75 to 79 °C

I would be grateful if you could share the reported melting point for `COc1cc2ncnc(N3CCN(C(=S)Nc4cccc(C(C)C)c4)CC3)c2cc1OC` .
169 to 171 °C

Requested read-out: melting point. Entry: `COc1ccc2ncnc(N3CCN(C(=O)Nc4ccc([N+](=O)[O-])cc4)CC3)c2c1`
228 to 229 °C

If you can, please state the reported melting point value of `COc1cc2ncnc(N3CCN(C(=O)Nc4c(C(C)C)cccc4C(C)C)CC3)c2cc1OC` .
280 to 282 °C

Can you look up the measured melting point of `COc1cc2ncnc(N3CCN(C(=O)Nc4ccc([N+](=O)[O-])c([N+](=O)[O-])c4)CC3)c2cc1OC` for me?
273 to 274 °C

More entries:
Data request, read-out melting point, for `COc1cc2ncnc(N3CCN(C(=S)Nc4cccc(C(C)=O)c4)CC3)c2cc1OC`
192 to 193 °C

What does the data say about its melting point? Entry: `COc1cc2cc(Cl)nc(N3CCN(C(=O)Nc4ccc([N+](=O)[O-])cc4)CC3)c2cc1OC`
227 to 228 °C

* * *

Quantity name: melting point

Example cases with answers are listed next.
What measured melting point goes with `COc1cc2ncnc(N3CCN(C(=O)NCc4ccco4)CC3)c2cc1OC` ?
168 to 170 °C

Suppose we examine the compound `COc1cc2ncnc(N3CCN(C(=S)Nc4ccc5ccc6cccc7ccc4c5c67)CC3)c2cc1OC` ; what melting point value has been reported?
140 to 145 °C

Requested field: melting point. Item: `COc1cc2ncnc(N3CCN(C(=S)NCc4ccc5c(c4)OCO5)CC3)c2cc1OC`
113 to 114 °C

Find the recorded melting point belonging to `COc1cc2ncnc(N3CCN(C(=S)Nc4ccc(Sc5ccc([N+](=O)[O-])cc5)cc4)CC3)c2cc1OC` and report it.
144 to 146 °C

Looking for the measured melting point of `CC(=O)c1ccc(NC(=O)N2CCN(c3ncnc4c(Cl)cc(Cl)cc34)CC2)cc1` , can you help?
187 to 188 °C

New cases:
What melting point value was documented for this compound, `Cc1ccc2ncnc(N3CCN(C(=O)Nc4ccc(Oc5ccccc5)cc4)CC3)c2c1` ?
244 to 246 °C

Given `S=C(NCc1ccccc1)N1CCN(c2ncnc3cc4ccccc4cc23)CC1` , state its recorded melting point.
187 to 188 °C

# query: melting point of entry `COc1cc2ncnc(N3CCN(C(=O)Nc4ccc(C(C)(C)C)cc4)CC3)c2cc1OC`
109 to 111 °C
